# cAMP Rel EC50 (1% HSA) values compiled below
Biological target: hGLP-1R (Homo sapiens, UniProt P43220)
Sequence (P43220 24-463): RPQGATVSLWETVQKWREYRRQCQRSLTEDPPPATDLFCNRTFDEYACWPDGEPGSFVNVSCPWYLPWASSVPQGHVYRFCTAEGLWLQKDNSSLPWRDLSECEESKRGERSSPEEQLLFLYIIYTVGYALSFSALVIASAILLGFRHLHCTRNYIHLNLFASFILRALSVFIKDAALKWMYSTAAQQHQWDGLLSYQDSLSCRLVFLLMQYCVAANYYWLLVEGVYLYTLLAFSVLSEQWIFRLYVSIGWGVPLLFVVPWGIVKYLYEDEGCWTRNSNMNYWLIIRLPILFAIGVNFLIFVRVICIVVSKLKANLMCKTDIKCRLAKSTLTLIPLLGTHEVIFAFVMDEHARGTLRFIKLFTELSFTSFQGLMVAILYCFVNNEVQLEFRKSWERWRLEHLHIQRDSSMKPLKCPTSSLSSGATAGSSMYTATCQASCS
Assay: cell-based or functional assay
Just the number in nM, nothing appended.

>  <binder>
YXQGTFTSDXSXXLDXKAQXAFIEXLLEGGPSSGAPPPSGS (non-natural residues; lysine acylated AEEA-γGlu-C18 diacid; C-terminal amide; synthetic construct; SITE 2: note = 2-Aminoisobutyric Acid; SITE 10: note = 3-(4-Pyridyl)-L-alanine; SITE 12: note = L-ornithine; SITE 13: note = alpha-methyl-leucine; SITE 16: note = L-ornithine; SITE 17: note = Lysine is chemically modified through conjugation of the epsilon-amino group of the Lys) [Example 933]

>  <unit_of_measure>
nM

>  <cAMP Rel EC50 (1% HSA)>
557

$$$$
>  <binder>
YXQGTFTSDXSQXLDKKAQXAFIEYLLEAGPSSXAPPPSGT (synthetic construct; SITE 2: note = 2-Aminoisobutyric Acid; SITE 10: note = 3-(4-Pyridyl)-L-alanine; SITE 13: note = alpha-methyl-leucine; SITE 17: note = Lysine is chemically modified through conjugation of the epsilon-amino group of the Lysine side chain with (2-[2-(2-Amino-ethoxy)-ethoxy]-acetyl)) [Example 825]

>  <unit_of_measure>
nM

>  <cAMP Rel EC50 (1% HSA)>
303

$$$$

In the following, a different binder is considered.
The recorded cAMP Rel EC50 (1% HSA) for YXQGTXTSDXXIXLDXKAAXEFIEXLIEGGPSSGAPPPSGTEE (synthetic construct; SITE 2: note = 2-Aminoisobutyric Acid; SITE 6: note = alpha-methyl-2-fluoro-L-phenylalanine; SITE 10: note = 3-(4-Pyridyl)-L-alanine; SITE 11: note = alpha-methyl-L-serine; SITE 13: note = alpha-methyl-leucine; SITE 16: note = L-ornithine; SITE 17: note = Lysine is chemically mo) [Example 725] is 29.1
